- ASSAY_TEXT: NCI Yeast Anticancer Drug Screen. Data for the sgs1 mgt1 strain (AID 161);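 note: 0% = growth of cultures given vehicle only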
- SETTINGS: S. cerevisiae sgs1 mgt1 strain, at 50.0 µM, hits give high values
- Procedure: Growth inhibition of yeast strains with defined genetic alterations is measured as a screen for potential anti-cancer activity. Selected strains with alterations in DNA damage repair or cell cycle control were exposed to compounds and growth inhibition was measured relative to vehicle treated controls. The strain used in this assay is sgs1 mgt1
About 79,000 compounds went through this panel and 15% of them were active in at least one assay; those are over-represented in the sample as a whole.
Recorded growth inhibition by entry

| COMPOUND | growth inhibition [%] |
| --- | --- |
| COc1cc2c(c(OC)c1OC)-c1ccc(=O)c(OC)cc1[C@@H](N)CC2 | -12.5 |
| C[N+]1(c2ccccc2)C=C(c2ccccc2)SC1=S (stereo not given) | 60.5 |
| CCN(CC)CCOC(=O)c1ccc(N=Nc2ccc(O)c3ccccc23)cc1 | 99 |
| CN(C)CCNC(=O)C(c1ccccc1)c1ccccc1 | 12.8 |
| CN(C)c1ccc(/C=C/c2ccnc3ccccc23)cc1Cl | 66.8 |
| O=C1C(Cl)=C(Cl)C(=O)C2CC=CCC12 (stereo not given) | 99.6 |
| COc1cc(C2C(C(=O)O)=C(C)Oc3cc4c(cc32)OCO4)cc(OC)c1OC (stereo not given) | 97 |
| Nc1ccc2c(c1)[nH]c(=O)c1c(Cl)cccc12 | 21.4 |
| S=C(NCc1ccccc1)[S][Sb]([S]C(=S)NCc1ccccc1)[c]1ccccc1 | 96 |
| C#CC(=O)OCC#CCOC(=O)C#C | 78.2 |
| CC(=O)[O-].O=C(N/N=C/c1ccccc1[O-])c1ccccc1.[Zn+2] | 55.8 |
| CN(C)C(C)(C)CCNc1c2ccccc2nc2cccc([N+](=O)[O-])c12 | 96.7 |
| CN(C)CCOC(=O)c1ccccc1 | 24 |
| COc1ccc(/C=C(/NC(=O)c2ccccc2)C(=O)Nc2ccccc2)cc1OC | -18.4 |
| C=CS(=O)(=O)c1ccc([N+](=O)[O-])cc1 | 99.5 |
